The values you see were collected from patent US20230027854A1.

# experimental_details: Log D, octanol/sodium phosphate buffer
# Format: physicochemical
# condition_label: octanol/sodium phosphate buffer (50 mM, pH 7.4); read-out: log D7.4
parameter: logD

Dear colleague, I am looking for the recorded logD of the following compound: COc1ccc(-c2cc(Nc3ccnc(N4CCOCC4)n3)on2)cc1
2.3

====

# Tested on: JIMT-1 cells
# experimental_details: JIMT-1 cell growth inhibition / cell viability (SRB assay)
# Assay type: cell-based
# condition_label: Homo sapiens; cultured cells, in-house screening on JIMT-1; read-out: IC50, suppresses cell growth
parameter: IC50 (nM)
Value expressed in nM; do not type the unit.

Can you look up IC50 on JIMT-1 cells for COc1ccc(-c2cc(Nc3ccnc(N4CCOCC4)n3)on2)cc1 [Compound 5] ?
190
